- TARGET DESC: Corticotropin-releasing factor receptor 2/Corticotropin-releasing factor-binding protein (Homo sapiens, UniProt P24387+Q13324)
- Sequence (Q13324 whole entry): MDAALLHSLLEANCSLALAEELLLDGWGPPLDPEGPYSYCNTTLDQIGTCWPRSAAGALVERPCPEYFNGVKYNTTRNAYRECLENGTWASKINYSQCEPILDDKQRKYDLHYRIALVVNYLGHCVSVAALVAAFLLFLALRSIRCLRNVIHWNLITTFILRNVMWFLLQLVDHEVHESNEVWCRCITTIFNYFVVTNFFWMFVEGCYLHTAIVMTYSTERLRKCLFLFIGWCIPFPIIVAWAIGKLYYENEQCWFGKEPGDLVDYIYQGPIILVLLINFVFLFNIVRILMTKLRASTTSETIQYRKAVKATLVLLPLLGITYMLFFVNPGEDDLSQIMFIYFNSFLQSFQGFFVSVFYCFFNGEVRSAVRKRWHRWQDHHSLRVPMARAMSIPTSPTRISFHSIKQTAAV
- Sequence (P24387 whole entry): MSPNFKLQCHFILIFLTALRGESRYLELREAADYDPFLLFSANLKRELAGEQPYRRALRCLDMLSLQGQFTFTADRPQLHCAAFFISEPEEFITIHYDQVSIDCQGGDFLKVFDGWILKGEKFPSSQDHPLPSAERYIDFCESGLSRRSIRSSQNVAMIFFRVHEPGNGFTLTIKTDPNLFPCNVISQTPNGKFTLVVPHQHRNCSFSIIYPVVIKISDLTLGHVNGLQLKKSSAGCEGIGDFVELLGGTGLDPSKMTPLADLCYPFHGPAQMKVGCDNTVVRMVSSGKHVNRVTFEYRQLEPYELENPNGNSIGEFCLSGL
- MEASUREMENT DESCRIPTION: Dose Response confirmation of uHTS hits for small molecule antagonists of the CRF-binding protein and CRF-R2 receptor complex.
- Assay type: functional
- PARTICULARS: read-out: IC50_Mean
Calls of active or inactive are those of the source.
Give your call using only these classes: Yes (active), No (inactive)

QUERY: Per the assay record, what outcome was assigned to `Cc1c(C(=O)O)sc(S(=O)(=O)N2CCN(C(=O)Cc3ccc(F)cc3)CC2)c1C(=O)O` ?
RESULT: No

QUERY: One more compound: `Cc1ccccc1Cn1ccc(NC(=O)c2cc3ncc(Br)cn3n2)n1`
RESULT: Yes

QUERY: One more compound: `O=C(NNC(=O)c1ccccc1C(=O)O)c1ccc(O)cc1`
RESULT: No

QUERY: One more compound: `Cc1noc(C)c1S(=O)(=O)N1CCC(C(=O)N2CCN(c3ccc(Cl)cc3)CC2)CC1`
RESULT: No

QUERY: One more compound: `COc1ccc(C#Cc2c(-c3ccccc3)n(-c3ccccc3)c3ccc(CO)cc23)cc1`
RESULT: No

QUERY: One more compound: `CS(=O)(=O)Oc1ccc(Br)c2cccnc12`
RESULT: No

QUERY: One more compound: `Cn1c(COc2ccccc2)nnc1SCC(=O)c1cccc([N+](=O)[O-])c1`
RESULT: Yes

QUERY: One more compound: COc1ccc2c(c1OC)C(=O)N1c3ccccc3COC21 (stereo unspecified)
RESULT: No

QUERY: One more compound: `CCc1nc(NCCC(C)C)c(C#N)c2c1CCCC2`
RESULT: No

QUERY: One more compound: CCN1C(=O)CC2CCCC1C2 (stereo unspecified)
RESULT: No

QUERY: One more compound: CCOc1ccc(C(CCc2ccccc2)NC(=O)c2ccccc2OC)cc1OCC (stereo unspecified)
RESULT: No

* * *

Could you please report measured IC50 for the items listed next?
- TARGET DESC: Sentrin-specific protease 8 (Homo sapiens);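 also: luminescence read-out of SENP8 inhibition, dose-response confirmation following an ultra-high-throughput screen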
- Sequence (Q96LD8 whole entry): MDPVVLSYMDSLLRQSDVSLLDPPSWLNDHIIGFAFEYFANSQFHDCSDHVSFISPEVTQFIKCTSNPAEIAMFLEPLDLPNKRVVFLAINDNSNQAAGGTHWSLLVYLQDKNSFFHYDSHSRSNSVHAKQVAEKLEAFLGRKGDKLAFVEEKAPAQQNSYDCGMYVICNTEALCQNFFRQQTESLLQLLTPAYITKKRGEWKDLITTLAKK
- Type: functional
Calls of active or inactive are those of the source.

QUERY: Tell me the measured IC50 of `COc1ccccc1N1CCN(/N=C/c2ccc([N+](=O)[O-])cc2)CC1` , please.
RESULT: > 100 µM (inactive)

QUERY: One more compound: `Cc1oc2c(c1C(=O)N1CCC(C)CC1)C(=O)c1ccccc1C2=O`
RESULT: 23.6 µM (active)

QUERY: One more compound: O=[N+]([O-])c1ccc(O)c(C2=NNC(c3ccccc3F)C2)c1 (stereo unspecified)
RESULT: 54.5 µM (active)

QUERY: One more compound: `Cc1nc2ccc(NC(=O)c3cc(Cl)ccn3)cc2s1`
RESULT: 86.4 µM (active)

QUERY: One more compound: `O=C(Nc1ccc(Cl)c(Cl)c1)c1ccco1`
RESULT: 21.7 µM (active)

QUERY: One more compound: `O=C(COC(=O)c1ccc([N+](=O)[O-])s1)NC(=O)NCc1ccccc1`
RESULT: 4.28 µM (active)

QUERY: One more compound: `Fc1ccccc1SCc1nnc(-c2ccccc2Br)o1`
RESULT: 14.7 µM (active)

QUERY: One more compound: `Clc1nc(-c2ccccn2)nc2scc(-c3ccccc3)c12`
RESULT: 7.79 µM (active)

QUERY: One more compound: `Cn1c(/C(C#N)=C/c2ccc(O)cc2)nc2ccccc21`
RESULT: 45 µM (active)

QUERY: One more compound: `Oc1ccc(/C=C/c2ccnc3ccccc23)cc1`
RESULT: > 100 µM (inactive)

QUERY: One more compound: `CN(CC(=O)Nc1ccc(Cl)cc1)C(=O)CNC(=O)c1ccc2ccccc2c1`
RESULT: > 100 µM (inactive)

* * *

Could you please report measured EC50 for the items listed next?
- MEASUREMENT DESCRIPTION: viability of HCT116 lacking mutant beta-catenin – cell-based, human colon tumor, dose response (AID 1045);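 also: HCT116 colon tumor cells with beta catenin knocked out; cells exposed to compound for 60 hours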
- Format: functional
Active and inactive are the calls of the source.

QUERY: Tell me the measured EC50 of `c1ccc2c(c1)ncn2CCCCOc1ccc2c(c1)CCC2` , please.
RESULT: 22.8 µM (active)

QUERY: One more compound: `CSc1nc(-c2ccc(C)cc2)nc(C(Cl)Cl)n1`
RESULT: 0.714 µM (active)

QUERY: One more compound: `N#Cc1ccc(/C=C/C(=O)c2ccco2)cc1`
RESULT: 17.2 µM (active)

QUERY: One more compound: `Cc1ccc(N(CC(=O)NCCc2ccc(F)cc2)S(=O)(=O)c2ccc(Cl)c([N+](=O)[O-])c2)c(C)c1`
RESULT: 8.87 µM (active)

* * *

- Test system: H4
- MEASUREMENT DESCRIPTION: Luminescence Cell-Based Dose Response HTS to Identify Activators of 5'UTR Stem-Loop Driven Prion Protein mRNA Translation in H4 Neuroglioblastoma Cells. [Related pubchem assays: 1829 (Project Summary), 1814 (Primary HTS)]
- Type: functional
- PARTICULARS: Homo sapiens
Activity calls are given as the source filed them.
Could you please report measured EC50 for the items listed next?

QUERY: Tell me the measured EC50 of `N#C/C(=C\c1ccc(Sc2ccccc2)o1)c1nc2ccccc2[nH]1` , please.
RESULT: 23 µM (active)

QUERY: One more compound: `Cc1ccc2oc(=O)c(/C=C(\O)c3cccs3)nc2c1`
RESULT: 16.5 µM (active)

QUERY: One more compound: `Cc1nc2c(-c3ccc(Cl)cc3)cnn2c2c1CCC2`
RESULT: 24.5 µM (active)

QUERY: One more compound: `Cc1nc2ccc(NC(=O)c3ccc(Cl)s3)cc2s1`
RESULT: 12.5 µM (active)

QUERY: One more compound: `COc1ccc(/C=C2\CCn3c2nc2ccccc2c3=O)cc1OC`
RESULT: 1.08 µM (active)

QUERY: One more compound: `O=C1N=C(N2CCOCC2)S/C1=C1\C(=O)N(Cc2ccccc2)c2ccccc21`
RESULT: 45 µM (inconclusive)

* * *

- TARGET DESC: Protein skinhead-1 (Caenorhabditis elegans)
- Sequence (P34707 whole entry): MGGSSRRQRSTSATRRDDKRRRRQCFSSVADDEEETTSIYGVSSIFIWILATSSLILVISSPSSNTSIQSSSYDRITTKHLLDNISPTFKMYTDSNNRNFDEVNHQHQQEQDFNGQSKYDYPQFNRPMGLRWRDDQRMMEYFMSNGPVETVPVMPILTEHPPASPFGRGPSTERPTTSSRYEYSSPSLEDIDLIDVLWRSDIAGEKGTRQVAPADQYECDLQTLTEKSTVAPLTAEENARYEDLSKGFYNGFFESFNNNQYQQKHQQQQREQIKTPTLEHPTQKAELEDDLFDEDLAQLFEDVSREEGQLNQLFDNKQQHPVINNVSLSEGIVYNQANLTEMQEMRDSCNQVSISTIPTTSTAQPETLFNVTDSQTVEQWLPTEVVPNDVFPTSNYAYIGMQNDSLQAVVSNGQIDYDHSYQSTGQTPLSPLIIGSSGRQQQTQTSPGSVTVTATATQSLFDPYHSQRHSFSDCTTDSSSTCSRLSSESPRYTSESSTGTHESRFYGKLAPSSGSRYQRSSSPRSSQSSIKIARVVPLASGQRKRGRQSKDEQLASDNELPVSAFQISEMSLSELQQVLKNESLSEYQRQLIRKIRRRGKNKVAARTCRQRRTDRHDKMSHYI
- Assay type: functional
Activity calls are given as the source filed them.
Give your call using only these classes: active, inactive

QUERY: Per the assay record, what outcome was assigned to `Fc1ccc(-c2cnn3c(-c4ccncc4)ccnc23)cc1` ?
RESULT: inactive

QUERY: One more compound: `Cc1cccc(NC(=O)NCc2ccc3c(c2)cc(C)n3C)c1`
RESULT: inactive

QUERY: One more compound: `c1ccc(N2CCN(c3cnc4ccccc4n3)CC2)cc1`
RESULT: inactive

QUERY: One more compound: `O=C(CN1CCN(S(=O)(=O)N2CCCCC2)CC1)Nc1cc(Cl)cc(Cl)c1`
RESULT: inactive

QUERY: One more compound: `Clc1ccc(Nc2ccc3ccccc3n2)cc1`
RESULT: inactive

QUERY: One more compound: COC(=O)c1[nH]c2ccccc2c1NC(=O)C(C)N1CCOCC1 (stereo unspecified)
RESULT: inactive

QUERY: One more compound: `CSc1ccc(S(=O)(=O)N2CCC(C(=O)Nc3ccccc3C(F)(F)F)CC2)cc1`
RESULT: inactive

QUERY: One more compound: CCOC(=O)C1=C(Nc2ccccc2)CC(C)(O)C(C(=O)OCC)C1c1ccc(Cl)cc1 (stereo unspecified)
RESULT: inactive

QUERY: One more compound: `CCc1nc(NCCC(C)C)c(C#N)c2c1CCCC2`
RESULT: inactive

QUERY: One more compound: CSC1SCC2C(=O)N(C)C(C(C)C)C(=O)OCC(NC(=O)c3cnc4ccccc4n3)C(=O)NC(C)C(=O)N(C)C1C(=O)N(C)C(C(C)C)C(=O)OCC(NC(=O)c1cnc3ccccc3n1)C(=O)NC(C)C(=O)N2C (stereo unspecified)
RESULT: inactive

QUERY: One more compound: O=C1/C(=C\c2cccs2)SC(=S)N1C1CCS(=O)(=O)C1 (stereo unspecified)
RESULT: inactive

QUERY: One more compound: `COc1ccc(C(=O)NCc2ccc3c(c2)cc(C)n3C)cc1`
RESULT: inactive

QUERY: One more compound: `Cc1cc(C)n(-c2nc3ccccc3n3cnnc23)n1`
RESULT: inactive

QUERY: One more compound: `O=C(Nc1ccc(Cl)c(Cl)c1)c1ccco1`
RESULT: active

QUERY: One more compound: `CCn1cc(C(=O)OCC(=O)NCc2ccc3c(c2)OCO3)c(=O)c2ccc(C)nc21`
RESULT: inactive

QUERY: One more compound: `Clc1ccc(-c2nnc(-c3ccccc3)o2)cn1`
RESULT: active
